Target: beta-galactosidase (Escherichia coli)
Construct: purchased Sigma G4155
Sequence (P00722 2-1024): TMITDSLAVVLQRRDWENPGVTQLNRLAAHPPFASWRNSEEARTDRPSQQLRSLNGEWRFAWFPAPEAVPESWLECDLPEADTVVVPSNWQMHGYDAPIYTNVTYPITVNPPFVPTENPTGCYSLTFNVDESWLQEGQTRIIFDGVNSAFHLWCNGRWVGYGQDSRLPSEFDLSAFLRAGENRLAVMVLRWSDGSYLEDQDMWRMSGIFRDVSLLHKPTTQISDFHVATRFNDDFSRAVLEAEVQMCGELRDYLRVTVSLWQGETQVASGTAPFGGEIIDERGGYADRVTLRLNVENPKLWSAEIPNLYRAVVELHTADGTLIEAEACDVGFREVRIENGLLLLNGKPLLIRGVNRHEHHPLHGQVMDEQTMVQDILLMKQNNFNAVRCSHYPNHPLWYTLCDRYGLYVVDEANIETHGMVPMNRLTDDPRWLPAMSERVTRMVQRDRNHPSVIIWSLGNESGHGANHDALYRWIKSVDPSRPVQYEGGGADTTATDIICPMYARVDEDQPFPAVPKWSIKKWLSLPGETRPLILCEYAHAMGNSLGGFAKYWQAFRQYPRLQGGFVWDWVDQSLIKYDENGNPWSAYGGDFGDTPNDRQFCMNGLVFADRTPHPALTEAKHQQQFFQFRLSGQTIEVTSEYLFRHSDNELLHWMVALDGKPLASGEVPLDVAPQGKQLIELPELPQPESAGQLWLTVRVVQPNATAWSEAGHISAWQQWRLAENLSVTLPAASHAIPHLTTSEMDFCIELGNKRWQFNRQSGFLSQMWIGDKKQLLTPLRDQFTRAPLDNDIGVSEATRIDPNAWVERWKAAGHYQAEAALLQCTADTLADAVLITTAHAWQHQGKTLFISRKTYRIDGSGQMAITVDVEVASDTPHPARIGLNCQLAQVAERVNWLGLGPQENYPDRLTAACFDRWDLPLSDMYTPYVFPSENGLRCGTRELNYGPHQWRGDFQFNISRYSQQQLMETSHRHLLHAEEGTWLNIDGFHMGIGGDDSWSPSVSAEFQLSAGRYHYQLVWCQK
Test: in vitro
Type: biochemical, E. coli
Conditions: Escherichia coli; beta-galactosidase, PBS buffer, 37° C., HPLC; read-out: hydrolysis half-life by enzyme
Experimental: In order to identify the reactivity of ligand-drug conjugate (1) of Example 2 to β-galactosidase, the difference of the reactivity to R-glucuronidase between it and ligand-drug conjugate (B) of Comparative Example 2 as a comparative material was compared. Ligand-drug conjugate (1) of Example 2 and ligand-drug conjugate (B) of Comparative Example 2 were respectively dissolved in DMSO to a concentration of 9 mM, and then each of them was mixed with PBS buffer solution to prepare 500 μM of solution. […]
Property Measured: half-life at 50 µM (min)

INSERT INTO assay_data (compound, units_of_measure, result) VALUES
  ('CCC(C)[C@@H]([C@@H](CC(=O)N1CCC[C@H]1[C@H](OC)[C@@H](C)C(=O)N[C@@H](Cc1ccccc1)C(=O)O)OC)N(C)C(=O)[C@@H](NC(=O)[C@H](C(C)C)N(C)C(=O)OCc1ccc(O[C@@H]2O[C@H](CO)[C@H](O)[C@H](O)[C@H]2O)c(C(=O)NCCOCCOCCOCc2cn(CCC(=O)N[C@@H](CCCCN)C(=O)NCCOCCOCCNC(=O)CC[C@H](NC(=O)c3ccc(NCc4cnc5nc(N)[nH]c(=O)c5n4)cc3)C(=O)O)nn2)c1)C(C)C (stereo partly shown) [ligand-drug conjugate (1)]', 'min', 34.7);

* * *

System: KB cancer cell line
Assay: In vitro cytotoxicity of ligand-drug conjugates (MTT)
Type: cell-based, human
Details: KB cell, 72 hours, MTT; read-out: Cell cytotoxicity IC50
Experimental: KB cancer cell line was seeded 30,000 cells per well of a 96-well plate, and after the culture for 24 hours, the drug MMAF-OMe was treated with a concentration of 0.0097˜10 nM (4-fold serial dilution), ligand-drug conjugate (B) prepared in Comparative Example 2 and ligand-drug conjugate (1) prepared in Example 2 were treated with a concentration of 0.0244-100 nM (4-fold serial dilution). […] And then formazan reduced by oxidoreductase present in live cells were dissolved in DMSO, and quantified. […]
Property Measured: IC50

INSERT INTO results (molecule, target_entity, property_measured, result) VALUES
  ('CCC(C)[C@@H]([C@@H](CC(=O)N1CCC[C@H]1[C@H](OC)[C@@H](C)C(=O)N[C@@H](Cc1ccccc1)C(=O)O)OC)N(C)C(=O)[C@@H](NC(=O)[C@H](C(C)C)N(C)C(=O)OCc1ccc(O[C@@H]2O[C@H](CO)[C@H](O)[C@H](O)[C@H]2O)c(C(=O)NCCOCCOCCOCc2cn(CCC(=O)N[C@@H](CCCCN)C(=O)NCCOCCOCCNC(=O)CC[C@H](NC(=O)c3ccc(NCc4cnc5nc(N)[nH]c(=O)c5n4)cc3)C(=O)O)nn2)c1)C(C)C (stereo partly shown) [ligand-drug conjugate (1)]', 'KB cancer cell line', 'IC50', '0.44 nM');
